- SYSTEM: T1, TNFR1 (Homo sapiens, UniProt P19438)
- T1 chain: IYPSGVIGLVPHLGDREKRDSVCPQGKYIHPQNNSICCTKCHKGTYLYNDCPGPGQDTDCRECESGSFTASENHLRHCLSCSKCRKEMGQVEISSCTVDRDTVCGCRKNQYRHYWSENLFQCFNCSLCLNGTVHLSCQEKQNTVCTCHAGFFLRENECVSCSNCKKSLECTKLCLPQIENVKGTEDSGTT
- EXPERIMENT: yeast display SC50
RECORDED_ENDPOINT: apparent Kd (screen) (nM)

A = L39D (designed binder) MTLQELLREEALRRAEAEAFRYALELLAEKFPEQKEYLDDLAEEIESQIRSLSGVDVEDVRKFLDKEWAWVKELLAEHPAELAEVEAARAARLAELRAEVEAKVAA
B = V57F (designed binder) MTLQELLREEALRRAEAEAFRYALELLAEKFPEQKEYLLDLAEEIESQIRSLSGVDFEDVRKFLDKEWAWVKELLAEHPAELAEVEAARAARLAELRAEVEAKVAA
Of the two listed items, which has the higher apparent Kd (screen)? First: A Second: B Mark your selection by writing its label.
A
(A: 8.56 nM, B: 0.718 nM)
